- Tested on: A549
- Run description: Growth inhibition of human A549 cells after 48 hrs by MTS assay
- Format: functional, cell-based
- Experimental parameters: A549, 48 h, read-out: IC50
pIC50: −log10 of the molar value.
Measurement name: pIC50

Consider the following illustrative entries.
CC(C)(C)c1ccc(Cn2nc(-c3ccc(Cl)cc3)cc2C(=N)NO)cc1 ... 4.75
CC(C)(C)c1ccc(Cn2nc(-c3ccc(Cl)cc3)cc2C(=O)N/N=C/c2cccc(O)c2O)cc1 ... 5.11

(A) O=C(N/N=C/c1ccc(F)cc1F)c1cc(-c2ccc(Cl)cc2)nn1Cc1ccc(Cl)nc1
(B) O=C(N/N=C/c1cccc(O)c1O)c1cc(-c2ccc(Cl)cc2)nn1Cc1ccc(Cl)nc1
(C) N=C(NO)c1cc(-c2ccc(Cl)cc2)nn1Cc1ccc(Cl)nc1
(D) CC(C)(C)c1ccc(Cn2nc(-c3ccc(Cl)cc3)cc2/C(N)=N/OC(=O)c2cccc(O)c2O)cc1
Sort low-to-high on pIC50, please. Output the labels ranked as instructed.
D, C, A, B

----------
Below is a list of entries, each paired with its recorded IC50 value.
- Test system: A549
- Run description: Growth inhibition of human A549 cells after 48 hrs by MTS assay
- Assay type: functional, cell-based
- Experimental parameters: A549, 48 h, read-out: IC50

CC(C)(C)c1ccc(Cn2nc(-c3ccc(Cl)cc3)cc2-c2noc(-c3cccc(O)c3O)n2)cc1 ... > 100 µM
N#Cc1ccc(/C=N/NC(=O)c2cc(-c3ccc(Cl)cc3)nn2Cc2ccc(Cl)nc2)cc1 ... > 100 µM

From here, focus on the item given below.
What IC50 value was documented for this molecule, CC(C)(C)c1ccc(Cn2nc(-c3ccc(Cl)cc3)cc2C(=O)N/N=C/c2ccc(F)cc2F)cc1 ?
> 100 µM
